Biological target: WRN [UniPro: Q14191 (WRN_HUMAN), N500-C946] (Homo sapiens (Human))
Assay: WRN unwinding assay (FORKF DNA, fluorescence)
Type: biochemical
Details: Table 14
Protocol: WRN unwinding assay was initiated to evaluate potential inhibitory effect of compounds for WEN helicase activity. WRN [UniPro: Q14191 (WRN_HUMAN), N500-C946] was expressed and purified in insect system and stored at −80° C. in aliquots. […] Average fluorescence signal of high control (Wells with 1% DMSO) was calculated as High Control (HC). Average fluorescence signal of low control (Wells with no WRN protein) was calculated as Low control (LC). […]
pIC50: −log10 of the molar value.
result.type: pIC50

Solved cases below.
{"columns": ["smiles.text", "pIC50"],
 "data": [
  ["CCc1c(N2CCN(C(=O)CNC(=O)c3ccccc3)CC2)c(=O)n2nc(-c3cnc4c(c3)CCCO4)nc2n1CC(=O)Nc1ccc(C(F)(F)F)cc1Cl", "6.00 to 7.00"],
  ["CCc1c(N2CCN(C(=O)C(=O)NOCc3ccccc3)CC2)c(=O)n2nc(C3=CCOCC3)nc2n1CC(=O)Nc1ccc(C(F)(F)F)cc1Cl", "> 7.00"],
  ["CCc1c(N2CCN(C(=O)c3nnc(-c4ccccc4F)[nH]3)CC2)c(=O)n2nc(C3=CCOCC3)nc2n1CC(=O)Nc1ccc(C(F)(F)F)cc1F", "6.00 to 7.00"]
]}

Item under review: CCc1c(N2CCN(C(=O)CNC(=O)Cc3ccccc3F)CC2)c(=O)n2nc(C3=CCOCC3)nc2n1CC(=O)Nc1ccc(C(F)(F)F)cc1Cl . Reported pIC50?
> 7.00

// query: CCc1c(N2CCN(C(=O)CNC(=O)c3cc(C)on3)CC2)c(=O)n2nc(C3=CCOCC3)nc2n1CC(=O)Nc1ccc(C(F)(F)F)cc1F
> 7.00

// query: CCc1c(N2CCN(C(=O)CNC(=O)c3ccccc3)CC2)c(=O)n2nc(N3Cc4ccncc4C3)nc2n1CC(=O)Nc1ccc(C(F)(F)F)cc1Cl
> 7.00

// query: CCc1c(N2CCN(C(=O)CNC(=O)c3cccc(Cl)c3)CC2)c(=O)n2nc(C3=CCOCC3)nc2n1CC(=O)Nc1ccc(C(F)(F)F)cc1Cl
6.00 to 7.00

// query: CCc1c(N2CCN(C(=O)CNC(=O)c3nccs3)CC2)c(=O)n2nc(C3=CCOCC3)nc2n1CC(=O)Nc1ccc(C(F)(F)F)cc1F
> 7.00

// query: CCc1c(N2CCN(C(=O)CNC(=O)c3ccccc3)CC2)c(=O)n2nc(Br)nc2n1CC(=O)Nc1ccc(C(F)(F)F)cc1Cl
6.00 to 7.00

====

target: WRN [UniPro: Q14191 (WRN_HUMAN), N500-C946] (Homo sapiens (Human), UniProt Q14191); test: WRN unwinding assay (FORKF DNA, fluorescence); type: biochemical; details: Table 14
Sequence (Q14191 500-946): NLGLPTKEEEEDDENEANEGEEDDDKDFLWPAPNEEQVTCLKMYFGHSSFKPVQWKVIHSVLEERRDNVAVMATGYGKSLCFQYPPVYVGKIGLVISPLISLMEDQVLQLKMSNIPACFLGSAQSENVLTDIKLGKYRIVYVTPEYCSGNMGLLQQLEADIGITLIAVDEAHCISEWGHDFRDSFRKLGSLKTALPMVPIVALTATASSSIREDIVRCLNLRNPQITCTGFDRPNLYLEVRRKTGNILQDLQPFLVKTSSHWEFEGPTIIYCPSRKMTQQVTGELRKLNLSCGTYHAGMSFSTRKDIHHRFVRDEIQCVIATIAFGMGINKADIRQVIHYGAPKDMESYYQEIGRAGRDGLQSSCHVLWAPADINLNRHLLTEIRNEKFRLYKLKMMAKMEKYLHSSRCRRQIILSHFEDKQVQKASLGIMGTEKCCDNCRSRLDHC
pIC50: −log10 of the molar value.
result.type: pIC50

{"columns": ["smiles.text", "pIC50"],
 "data": [
  ["CCc1c(N2CCN(c3noc4cccnc34)CC2)c(=O)n2nc(C3=CCOCC3)nc2n1CC(=O)Nc1ccc(C(F)(F)F)cc1Cl", "< 6.00"]
]}

Item under review: CCc1c(N2CCN(C(=O)C(=O)Nc3nccs3)CC2)c(=O)n2nc(N3CCn4cncc4C3)nc2n1CC(=O)Nc1ccc(C(F)(F)F)cc1F . Reported pIC50?
> 7.00

// query: CCc1c(N2CCN(C(=O)c3nnc(C)[nH]3)CC2)c(=O)n2nc(C3=CCOCC3)nc2n1CC(=O)Nc1ccc(C(F)(F)F)cc1F
6.00 to 7.00

// query: CCc1c(N2CCN(C(=O)CNC(=O)c3ccccc3F)CC2)c(=O)n2nc(C3=CCOCC3)nc2n1CC(=O)Nc1cc(Br)cs1
> 7.00

// query: CCc1c(N2CCN(C(=O)CNC(=O)c3cnccc3O)CC2)c(=O)n2nc(C3=CCOCC3)nc2n1CC(=O)Nc1ccc(C(F)(F)F)cc1Cl
> 7.00

// query: CCc1c(N2CCN(C(=O)CNC(=O)c3nc(N)ccc3F)CC2)c(=O)n2nc(C3=CCOCC3)nc2n1CC(=O)Nc1ccc(C(F)(F)F)cc1Cl
> 7.00

// query: CCc1c(N2CCN(C(=O)CNC(=O)c3ccn[nH]3)CC2)c(=O)n2nc(C3=CCOCC3)nc2n1CC(=O)Nc1ccc(C(F)(F)F)cc1Cl
> 7.00

// query: CCc1c(N2CCN(C(=O)CNC(=O)c3ccc(F)c(N(C)C)c3)CC2)c(=O)n2nc(C3=CCOCC3)nc2n1CC(=O)Nc1ccc(C(F)(F)F)cc1Cl
> 7.00

====

Biological target: WRN [UniPro: Q14191 (WRN_HUMAN), N500-C946] (Homo sapiens (Human), UniProt Q14191)
Assay: WRN ATPase assay (ADP-Glo)
Type: biochemical
Conditions: WRN enzymatic activity assay
Procedure: WRN ATPase assay was initiated to evaluate potential inhibitory effect of compounds for ATP hydrolysis activity of WRN protein. WRN [UniPro: Q14191 (WRN_HUMAN), N500-C946] was expressed and purified in insect system and stored at −80° C. in aliquots. […] ADP quantity produced from ATP hydrolysis by WRN catalytic reaction was measured using a commercially available ADP-Glo Assay (ADP-Glo™ Kinase Assay from Promega, 10000 assays, #V9102). […]
result.type: IC50

Solved cases below.
{"columns": ["compound", "result.type", "result"],
 "data": [
  ["CCc1c(N2CCN(C(=O)CNC(=O)c3cc(NC)ccc3F)CC2)c(=O)n2nc(N3CCOCC3)nc2n1CC(=O)Nc1ccc(C(F)(F)F)cc1Cl [Example 250]", "IC50", "< 100 nM"],
  ["CCc1c(N2CCN(C(=O)c3cc4ccn(C)c4cc3O)CC2)c(=O)n2nc(C3=CCOCC3)nc2n1CC(=O)Nc1ccc(C(F)(F)F)cc1Cl [Example 80]", "IC50", "100 to 1000 nM"],
  ["CCc1c(N2CCN(C(=O)c3ncn4cccc4c3O)CC2)c(=O)n2nc(C3=CCOCC3)nc2n1CC(=O)Nc1ccc(C(F)(F)F)cc1Cl [Example 202]", "IC50", "100 to 1000 nM"],
  ["CCc1c(N2CCC(NC(=O)CNC(=O)c3ccccc3)CC2)c(=O)n2nc(C3=CCOCC3)nc2n1CC(=O)Nc1ccc(C(F)(F)F)cc1Cl [Example 141]", "IC50", "> 1000 nM"],
  ["CCc1c(N2CCN(C(=O)CNC(=O)c3ccns3)CC2)c(=O)n2nc(C3=CCOCC3)nc2n1CC(=O)Nc1ccc(C(F)(F)F)cc1Cl [Example 369]", "IC50", "< 100 nM"]
]}

Item under review: CCc1c(N2CCN(C(=O)CNC(=O)Nc3ccccc3C#N)CC2)c(=O)n2nc(C3=CCOCC3)nc2n1CC(=O)Nc1ccc(C(F)(F)F)cc1Cl [Example 187] . Reported IC50?
< 100 nM

// query: CCc1c(N2CCN(C(=O)CNC(=O)c3ncccc3O)CC2)c(=O)n2nc(C3=CCOCC3)nc2n1CC(=O)Nc1ccc(C(F)(F)F)cc1Cl [Example 271]
100 to 1000 nM

// query: CCc1c(N2CCN(C(=O)c3ccn4nccc4c3O)CC2)c(=O)n2nc(C3=CCOCC3)nc2n1CC(=O)Nc1ccc(C(F)(F)F)cc1Cl [Example 200]
< 100 nM

// query: CCc1c(N2CCN(C(=O)c3n[nH]c(=O)[nH]c3=O)CC2)c(=O)n2nc(C3=CCOCC3)nc2n1CC(=O)Nc1ccc(C(F)(F)F)cc1Cl [Example 22]
< 100 nM

// query: CCc1c(N2CCN(C(=O)CNC(=O)c3ccc(F)cc3)CC2)c(=O)n2nc(C3=CCOCC3)nc2n1CC(=O)Nc1ccc(C(F)(F)F)cc1Cl [Example 98]
< 100 nM

// query: CCc1c(N2CCN(C(=O)CNC(=O)c3ncc[nH]3)CC2)c(=O)n2nc(C3=CCOCC3)nc2n1CC(=O)Nc1ccc(C(F)(F)F)cc1Cl [Example 106]
100 to 1000 nM

// query: CCc1c(N2CCN(C(=O)CNC(=O)c3cnn4cccc4c3O)CC2)c(=O)n2nc(C3=CCOCC3)nc2n1CC(=O)Nc1ccc(C(F)(F)F)cc1Cl [Example 109]
< 100 nM

====

Biological target: WRN [UniPro: Q14191 (WRN_HUMAN), N500-C946] (Homo sapiens (Human), UniProt Q14191)
Assay: WRN unwinding assay (FORKF DNA, fluorescence)
Format: biochemical
Details: Table 14
Protocol: WRN unwinding assay was initiated to evaluate potential inhibitory effect of compounds for WEN helicase activity. WRN [UniPro: Q14191 (WRN_HUMAN), N500-C946] was expressed and purified in insect system and stored at −80° C. in aliquots. […] Average fluorescence signal of high control (Wells with 1% DMSO) was calculated as High Control (HC). Average fluorescence signal of low control (Wells with no WRN protein) was calculated as Low control (LC). […]
Each item that follows carries a reported IC50.

Solved cases below.
{"columns": ["compound", "result"],
 "data": [
  ["CCc1c(N2CCN(C(=O)CNC(=O)NC(=O)c3cc(F)ccc3F)CC2)c(=O)n2nc(C3=CCOCC3)nc2n1CC(=O)Nc1ccc(C(F)(F)F)cc1Cl", "< 100 nM"],
  ["CCc1c(N2CCN(C(=O)c3nc4ccccc4cc3N)CC2)c(=O)n2nc(C3=CCOCC3)nc2n1CC(=O)Nc1ccc(C(F)(F)F)cc1Cl", "< 100 nM"],
  ["CCc1c(N2CCN(C(=O)CNC(=O)c3nc(C)ncc3O)CC2)c(=O)n2nc(C3=CCOCC3)nc2n1CC(=O)Nc1ccc(C(F)(F)F)cc1Cl", "< 100 nM"],
  ["CCc1c(N2CCN(C(=O)CNC(=O)CC(C)C)CC2)c(=O)n2nc(C3=CCOCC3)nc2n1CC(=O)Nc1ccc(C(F)(F)F)cc1Cl", "< 100 nM"]
]}

Item under review: CCc1c(N2CCN(C(=O)c3ncc4nc(Cl)sc4c3O)CC2)c(=O)n2nc(C3=CCOCC3)nc2n1CC(=O)Nc1ccc(C(F)(F)F)cc1Cl . Reported IC50?
< 100 nM

// query: CCc1c(N2CCN(C(=O)c3cc(-c4cc(OC)ncc4F)[nH]n3)CC2)c(=O)n2nc(C3=CCOCC3)nc2n1CC(=O)Nc1ccc(C(F)(F)F)cc1Cl
> 1000 nM

// query: CCc1c(N2CCN(C(=O)CNS(=O)(=O)c3ccccc3)CC2)c(=O)n2nc(C3=CCOCC3)nc2n1CC(=O)Nc1ccc(C(F)(F)F)cc1Cl
100 to 1000 nM

The reported measurements were obtained from patent US20260015358A1.
